TARGET_OF_ASSAY: T1, human TREM2 (human, UniProt Q9NZC2 19-230)
T1 sequence: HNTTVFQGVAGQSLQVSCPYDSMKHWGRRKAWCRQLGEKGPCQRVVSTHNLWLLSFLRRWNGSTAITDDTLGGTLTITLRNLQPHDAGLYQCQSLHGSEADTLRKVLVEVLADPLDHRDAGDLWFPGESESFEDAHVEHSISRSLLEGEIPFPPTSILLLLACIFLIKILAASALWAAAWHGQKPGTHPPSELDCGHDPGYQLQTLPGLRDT
ASSAY_REMARKS: cell-based or functional assay
MEASUREMENT_KIND: Fold over isotype control at 66 nM (fold)
Just the number in fold, nothing appended.

Problem: Param item = EOS006175 (antibody, V domains shown) VH: QVQLQESGPGLVKPSGTLSLTCAVSGGSISSSNWWSWVRQPPGKGLEWIGEIYHSGSTNYNPSLKSRVTISVDKSKNQFSLKLSSVTAADTAVYYCARDTKYWGGMDVWGQGTTVTVSS VL: DIQMTQSPSSLSASVGDRVTITCQASQDISNYLNWYQQKPGKAPKLLIYDASNLATGVPSRFSGSGSGTDFTFTISSLQPEDIATYYCQQYVEAPTFGGGTKVEIK ; retrieve measured Fold over isotype control at 66 nM.
Result: 0.757

Problem: What value of Fold over isotype control at 66 nM has been recorded for this entry: EOS006177 (antibody, V domains shown) VH: QVQLQESGPGLVKPSGTLSLTCAVSGGSISDSAWWSWVRQPPGKGLEWIGEIYHDADTNYNPSLKSRVTISVDKSKNQFSLKLSSVTAADTAVYYCARDTKYWGGMDVWGQGTTVTVSS VL: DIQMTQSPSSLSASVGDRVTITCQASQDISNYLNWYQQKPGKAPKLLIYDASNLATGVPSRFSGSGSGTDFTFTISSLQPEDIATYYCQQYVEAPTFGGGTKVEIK
Result: 0.95

Problem: Any idea what its Fold over isotype control at 66 nM is? The binder is EOS006181 (antibody, V domains shown) VH: EVQLVESGGGLVQPGRSLRLSCTASGFTFDDHAMSWFRQAPGKGLEWVGFIGSKAYGGTTEYTASVKGRFTISRDGSKSIAYLQMNSLKTEDTAVYYCARGKRYSYTYWTPAFDVWGQGTMVTVSS VL: DIQMTQSPSSLSASVGDRVTITCQASQDITNYLNWYQQKPGKAPKLLIYDASNLETGVPSRFSGSGSGTDFTFTISSLQPEDIATYYCQQYDSYLTFGGGTKVEIK
Result: 2.84

Ref: patent US20250282868A1
